Entry source: patent US6207399A

Biological target: thrombin (Homo sapiens)
Experiment: Kinetic parameters of hydrolysis of the substrates by thrombin in buffer A at 37° C. (Example 4, Table 3)
Type: biochemical
Design: Pure human α-thrombin; gift of Dr. T. Lindhout (University of Limburg, Maastricht)
Settings: buffer A, 37° C.
Peptide text beside a SMILES is read from it. * marks the point of attachment. pNA = O=[N+]([O-])c1ccc(N*)cc1
result.type: Thrombin kcat /Km (M/s)
Numbers only, in M/s.

molecule	result.type	recorded.number
COC(=O)CC(=O)N[C@H](C(=O)N[C@@H](CCCNC(=N)N)C(=O)Nc1ccc([N+](=O)[O-])cc1)C(C)C.Cl [MZ-Val-Arg-pNA.HCl]	Thrombin kcat /Km	14300
CC(C)[C@H](NC(=O)CNC(=O)CNC(=O)[C@@H](N)CCC(=O)O)C(=O)N[C@@H](CCCNC(=N)N)C(=O)Nc1ccc([N+](=O)[O-])cc1 [2HCl.H-Glu-Gly-Gly-Val-Arg-pNA] (H-EGGVR-pNA)	Thrombin kcat /Km	542
CC(C)[C@H](NC(=O)CNC(=O)CNC(=O)CNC(=O)[C@@H](N)CCC(=O)O)C(=O)N[C@@H](CCCNC(=N)N)C(=O)Nc1ccc([N+](=O)[O-])cc1 [2HCl.H-EGGGVR-pNA, 2HCl.H-Glu-Gly-Gly-Gly-Val-Arg-pNA] (H-EGGGVR-pNA)	Thrombin kcat /Km	704
CC(C)[C@H](NC(=O)[C@@H](N)CCC(=O)O)C(=O)N[C@@H](CCCNC(=N)N)C(=O)Nc1ccc([N+](=O)[O-])cc1.Cl.Cl [2HCl.H-Glu-Val-Arg-pNA] (H-Glu-Val-Arg-pNA)	Thrombin kcat /Km	1540

Now consider the entry below.
Just so you know, measured Thrombin kcat /Km for CC(C)[C@H](NC(=O)CNC(=O)[C@@H](N)CCC(=O)O)C(=O)N[C@@H](CCCNC(=N)N)C(=O)Nc1ccc([N+](=O)[O-])cc1 [2HCl.H-Glu-Gly-Val-Arg-pNA] (H-EGVR-pNA) came out at 1070

###

Biological target: factor Xa (Homo sapiens)
Construct: human factor Xa samples; gift of Dr. T. Lindhout (University of Limburg, Maastricht)
Sequence (P00742 41-179 limits assumed): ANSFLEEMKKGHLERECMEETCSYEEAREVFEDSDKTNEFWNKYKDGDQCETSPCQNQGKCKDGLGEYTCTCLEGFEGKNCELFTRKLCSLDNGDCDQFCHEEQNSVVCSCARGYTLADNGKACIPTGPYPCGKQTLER
Sequence (P00742 235-488 limits assumed): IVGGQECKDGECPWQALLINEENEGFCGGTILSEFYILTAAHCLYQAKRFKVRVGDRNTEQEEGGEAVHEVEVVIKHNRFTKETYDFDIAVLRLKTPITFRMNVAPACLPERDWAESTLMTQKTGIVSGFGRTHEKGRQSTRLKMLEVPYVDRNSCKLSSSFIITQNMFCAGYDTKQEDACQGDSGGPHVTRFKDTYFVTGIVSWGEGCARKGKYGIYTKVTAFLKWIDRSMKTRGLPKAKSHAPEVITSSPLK
Experiment: Kinetic parameters of hydrolysis of the substrates by factor Xa in buffer A at 37° C. (Example 4, Table 3)
Format: biochemical
Conditions: buffer A, 37° C., 50 nM factor Xa
Peptide text beside a SMILES is read from it. * marks the point of attachment. pNA = O=[N+]([O-])c1ccc(N*)cc1; Boc = CC(C)(C)OC(=O)*
Given measured Factor Xa kcat /Km, output True if it is greater than or equal to 600 M/s and False if not.

Examples with answers:
compound	target.system	qualitative.label
CC(C)[C@H](NC(=O)CNC(=O)[C@@H]1CCCN1C(=O)CNC(=O)[C@@H](N)CCC(=O)O)C(=O)N[C@@H](CCCNC(=N)N)C(=O)Nc1ccc([N+](=O)[O-])cc1 [2HCl.H-EGPGVR-pNA, 2HCl.H-Glu-Gly-Pro-Gly-Val-Arg-pNA] (H-EGPGVR-pNA)	factor Xa (Homo sapiens)	True
CC(C)[C@H](NC(=O)CNC(=O)[C@@H](N)CCC(=O)O)C(=O)N[C@@H](CCCNC(=N)N)C(=O)Nc1ccc([N+](=O)[O-])cc1 [2HCl.H-Glu-Gly-Val-Arg-pNA] (H-EGVR-pNA)	factor Xa (Homo sapiens)	True
CC(C)[C@H](NC(=O)CNC(=O)CNC(=O)CNC(=O)[C@@H](N)CCC(=O)O)C(=O)N[C@@H](CCCNC(=N)N)C(=O)Nc1ccc([N+](=O)[O-])cc1 [2HCl.H-EGGGVR-pNA, 2HCl.H-Glu-Gly-Gly-Gly-Val-Arg-pNA] (H-EGGGVR-pNA)	factor Xa (Homo sapiens)	False
CC(C)[C@H](NC(=O)[C@@H](N)CCC(=O)O)C(=O)N[C@@H](CCCNC(=N)N)C(=O)Nc1ccc([N+](=O)[O-])cc1.Cl.Cl [2HCl.H-Glu-Val-Arg-pNA] (H-Glu-Val-Arg-pNA)	factor Xa (Homo sapiens)	True
COC(=O)CC(=O)N[C@H](C(=O)N[C@@H](CCCNC(=N)N)C(=O)Nc1ccc([N+](=O)[O-])cc1)C(C)C.Cl [MZ-Val-Arg-pNA.HCl]	factor Xa (Homo sapiens)	True

Query: Has CC(C)[C@H](NC(=O)CNC(=O)OC(C)(C)C)C(=O)N[C@@H](CCCNC(=N)N)C(=O)Nc1ccc([N+](=O)[O-])cc1.Cl [Boc-Gly-Val-Arg-pNA.HCl] (Boc-Gly-Val-Arg-pNA) a recorded Factor Xa kcat /Km greater than or equal to 600 M/s?
Reply: True

Query: Has CC(C)[C@H](NC(=O)CNC(=O)CNC(=O)[C@@H](N)CCC(=O)O)C(=O)N[C@@H](CCCNC(=N)N)C(=O)Nc1ccc([N+](=O)[O-])cc1 [2HCl.H-Glu-Gly-Gly-Val-Arg-pNA] (H-EGGVR-pNA) a recorded Factor Xa kcat /Km greater than or equal to 600 M/s?
Reply: False

Query: Has CC(C)[C@H](NC(=O)OCCS(C)(=O)=O)C(=O)N[C@@H](CCCNC(=N)N)C(=O)Nc1ccc([N+](=O)[O-])cc1.Cl [Msc-Val-Arg-pNA.HCl] a recorded Factor Xa kcat /Km greater than or equal to 600 M/s?
Reply: False

Query: Has CC(C)[C@H](NC(=O)CN)C(=O)N[C@@H](CCCNC(=N)N)C(=O)Nc1ccc([N+](=O)[O-])cc1.Cl.Cl [2HCl.H-Gly-Val-Arg-pNA] (H-Gly-Val-Arg-pNA) a recorded Factor Xa kcat /Km greater than or equal to 600 M/s?
Reply: True

Query: Has CC(C)[C@H](NC(=O)CNC(=O)CNC(=O)[C@@H]1CCCN1C(=O)[C@@H](N)CCC(=O)O)C(=O)N[C@@H](CCCNC(=N)N)C(=O)Nc1ccc([N+](=O)[O-])cc1 [2HCl.H-EPGGVR-pNA, 2HCl.H-Glu-Pro-Gly-Gly-Val-Arg-pNA] (H-EPGGVR-pNA) a recorded Factor Xa kcat /Km greater than or equal to 600 M/s?
Reply: False
